Target: T1, BCMA (Homo sapiens (Human), UniProt Q02223 1-54, limits assumed)
T1 sequence: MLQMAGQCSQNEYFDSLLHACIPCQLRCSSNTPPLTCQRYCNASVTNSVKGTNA
Test: ELISA, format not described
Parameters: unit not given here
Kind request: treat 10 as inclusive, so ELISA_avg at 10 or higher is y, anything lower is n.

[[record]]
binder = "D-domain SEQ ID NO: 98 (designed binder) MGSWSEFRGRLQAIHSRLNALGGSEAELAAFEKEIAAFESELQAYKGKGNPEVEELRYSAAIIRIYLQAYRHN"
labelvalue = "n"

[[record]]
binder = "D-domain SEQ ID NO: 108 (designed binder) MGSWSEFQQRLHAIRTRLYALGGSEAELAAFEKEIAAFESELQAYKGKGNPEVEELRFEAAIIRVMLQAYRHN"
labelvalue = "y"

[[record]]
binder = "D-domain SEQ ID NO: 122 (designed binder) MGSWLEFHYRLHAIQFRLYALGGSEAELAAFEKEIAAFESELQAYKGKGNPEVETLRHIAALIRNQLQAYRHN"
labelvalue = "y"

[[record]]
binder = "D-domain SEQ ID NO: 300 (designed binder) MGSWSYFKWGLAHIKLRLEALGGSEAELADFEFWIAEFEGLLQDYKGKGNPEVEALRKEAAAIRDELQAYRHN"
labelvalue = "y"


Data origin: patent US20250026849A1
